The reported measurements were obtained from the supplement of paper PMC8728848.

# SYSTEM UNDER TEST: Gal(b1-3)[Fuc(a1-4)]GlcNAc
# MEASUREMENT DESCRIPTION: glycan array binding signal (z-score within array); higher = stronger binding
# CONDITIONS USED: glycan notation: IUPAC condensed, linker removed
Many of the other results were omitted from the sample, so the strongest signals are more common in it than they were.
Could you label it YES if measured glycan array binding signal (z-score) is -0.2 or higher, and NO otherwise?

Some solved entries appear below for comparison.
Calsepa (Calystegia sepium), P93114 (protein) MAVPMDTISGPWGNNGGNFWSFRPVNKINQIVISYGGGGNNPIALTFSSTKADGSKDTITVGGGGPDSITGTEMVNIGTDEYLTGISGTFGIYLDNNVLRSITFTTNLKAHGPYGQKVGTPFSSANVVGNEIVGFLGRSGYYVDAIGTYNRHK | NO
NKR-PIC (Mus musculus) (protein) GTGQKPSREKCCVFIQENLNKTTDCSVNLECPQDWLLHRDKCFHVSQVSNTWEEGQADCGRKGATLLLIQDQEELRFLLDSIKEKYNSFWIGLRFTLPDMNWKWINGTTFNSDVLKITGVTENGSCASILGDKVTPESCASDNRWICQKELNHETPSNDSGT | NO
DCIR (Homo sapiens), Q9UMR7 (protein) MTSEITYAEVRFKNEFKSSGINTASSAASKERTAPHKSNTGFPKLLCASLLIFFLLLAISFFIAFVIFFQKYSQLLEKKTTKELVHTTLECVKKNMPVEETAWSCCPKNWKSFSSNCYFISTESASWQDSEKDCARMEAHLLVINTQEEQDFIFQNLQEESAYFVGLSDPEGQRHWQWVDQTPYNESSTFWHPREPSDPNERCVVLNFRKSPKRWGWNDVNCLGPQRSVCEMMKIHL | NO
MVL (Microcystis viridis), Q9RHG4 (protein) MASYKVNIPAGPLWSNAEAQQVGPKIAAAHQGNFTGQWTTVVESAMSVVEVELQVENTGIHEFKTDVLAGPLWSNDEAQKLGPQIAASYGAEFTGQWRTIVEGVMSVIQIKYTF | NO
Nictaba (Nicotiana tabacum), Q94EW1 (protein) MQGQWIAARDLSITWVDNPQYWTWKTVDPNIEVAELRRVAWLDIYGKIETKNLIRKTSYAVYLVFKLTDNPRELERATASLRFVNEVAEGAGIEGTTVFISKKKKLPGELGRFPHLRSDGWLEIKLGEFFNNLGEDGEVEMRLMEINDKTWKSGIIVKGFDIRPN | NO

Switching to the query record.
## Input # bool: glycan array binding signal (z-score) of Ficolin A (Rattus norvegicus), Q9WTS8 (protein) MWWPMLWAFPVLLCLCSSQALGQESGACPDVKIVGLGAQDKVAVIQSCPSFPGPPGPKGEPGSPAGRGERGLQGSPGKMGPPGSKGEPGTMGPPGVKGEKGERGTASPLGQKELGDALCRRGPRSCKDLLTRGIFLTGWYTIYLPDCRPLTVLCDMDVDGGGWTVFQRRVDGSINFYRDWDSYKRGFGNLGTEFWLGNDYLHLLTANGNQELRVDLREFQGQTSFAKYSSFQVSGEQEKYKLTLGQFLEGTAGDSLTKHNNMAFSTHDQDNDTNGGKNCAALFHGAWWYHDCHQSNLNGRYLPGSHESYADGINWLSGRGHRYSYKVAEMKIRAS >= -0.2
## Output YES
